The reported numbers originate from ChEMBL document CHEMBL2346511.

target: Kinesin-like protein KIF11 (Homo sapiens); assay: Inhibition of Eg5 in human HCT116 cells assessed as inhibition of microtubule-induced ATPase activity after 18 hrs; assay type: cell-based, HCT-116
quantity: IC50 (nM)

[[record]]
compound = "CC(=O)NC1=NN(C(C)=O)C(C)(c2ccccc2)S1 (stereo unspecified)"
units_text = "nM"
measured_value = 1300


----------
Target: Kinesin-like protein KIF11 (Homo sapiens, UniProt P52732)
Sequence (P52732 whole entry): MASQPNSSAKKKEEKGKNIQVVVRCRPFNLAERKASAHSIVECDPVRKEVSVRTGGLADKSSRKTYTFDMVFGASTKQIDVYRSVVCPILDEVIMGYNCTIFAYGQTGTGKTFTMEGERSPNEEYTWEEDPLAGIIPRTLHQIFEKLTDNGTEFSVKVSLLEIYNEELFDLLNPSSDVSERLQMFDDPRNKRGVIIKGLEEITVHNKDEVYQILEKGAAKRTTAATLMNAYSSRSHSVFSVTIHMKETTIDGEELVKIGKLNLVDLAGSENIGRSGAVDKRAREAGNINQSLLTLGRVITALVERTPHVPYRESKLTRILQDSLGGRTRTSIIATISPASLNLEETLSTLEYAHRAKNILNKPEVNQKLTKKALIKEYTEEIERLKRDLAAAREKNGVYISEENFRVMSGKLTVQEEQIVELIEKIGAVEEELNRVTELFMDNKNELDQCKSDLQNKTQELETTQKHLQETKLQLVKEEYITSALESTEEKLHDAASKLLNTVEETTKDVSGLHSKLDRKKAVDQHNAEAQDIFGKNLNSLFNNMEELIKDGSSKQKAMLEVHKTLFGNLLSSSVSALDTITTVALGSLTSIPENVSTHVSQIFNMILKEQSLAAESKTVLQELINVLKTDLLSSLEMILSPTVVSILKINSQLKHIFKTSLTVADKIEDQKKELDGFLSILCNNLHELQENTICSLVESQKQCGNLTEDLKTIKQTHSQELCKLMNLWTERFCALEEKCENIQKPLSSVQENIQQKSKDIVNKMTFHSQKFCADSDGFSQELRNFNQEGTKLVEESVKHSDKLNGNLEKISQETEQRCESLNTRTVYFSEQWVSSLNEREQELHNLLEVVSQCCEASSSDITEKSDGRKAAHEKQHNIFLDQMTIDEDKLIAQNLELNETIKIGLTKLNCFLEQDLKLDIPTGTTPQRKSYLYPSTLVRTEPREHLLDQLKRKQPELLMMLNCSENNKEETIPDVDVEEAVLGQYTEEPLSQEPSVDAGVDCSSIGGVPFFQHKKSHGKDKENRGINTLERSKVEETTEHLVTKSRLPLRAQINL
Assay: Inhibition of human Eg5 basal ATPase activity
quantity: IC50

[[record]]
compound = "CC(C)(O)[C@@H]1C[C@@H](O)[C@]2(C)[C@H](CC[C@@]3(C)[C@H]2CC[C@H]2Cc4c([nH]c5ccccc45)[C@@]23C)O1 [TERPENDOLE E]"
quantity = "IC50"
measured_value = "23 µM"

